Molecular target: Nuclear receptor subfamily 0 group B member 1 (Homo sapiens) (UniProt P51843)
Sequence (P51843 207-470 limits assumed): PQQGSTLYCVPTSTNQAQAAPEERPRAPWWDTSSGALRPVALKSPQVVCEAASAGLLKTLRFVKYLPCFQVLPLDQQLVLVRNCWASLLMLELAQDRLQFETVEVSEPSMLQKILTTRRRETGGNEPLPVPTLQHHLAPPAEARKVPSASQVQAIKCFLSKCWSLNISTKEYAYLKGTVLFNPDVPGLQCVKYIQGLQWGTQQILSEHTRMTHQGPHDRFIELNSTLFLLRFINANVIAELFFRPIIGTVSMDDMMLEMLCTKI
Experiment: DAX1 (NR0B1) inhibitors, primary screen, cell-based, HEK293, Gal4-DAX1, luciferase luminescence (AID 504766);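 further: 0% = DAX1-transfected cells with DMSO and 100% = empty-vector control cells with DMSO; inhibition shows as a rise in luminescence from relieved DAX1 repression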
Conditions: HEK293 Gal4-DAX1 luciferase reporter, at 6.75 µM, hits give high values
The campaign covered roughly 340,000 compounds. About 3,400 (1%) were called active. The entries come from a sample that favours actives as a whole.
Measured quantity: inhibition

Result for Cc1cccc(S(=O)(=O)N(C)C[C@H]2OCc3cnnn3CCCC(=O)N([C@@H](C)CO)C[C@H]2C)c1 , tested on Nuclear receptor subfamily 0 group B member 1 (Homo sapiens) (UniProt P51843), inhibition: 2.68% (inactive)

Result for CCN(CC)C(=O)C1=C(C)N(Cc2ccccc2)C(=O)C(CC(=O)NC(c2ccccc2)c2ccccc2)C1 (centres undefined) , tested on Nuclear receptor subfamily 0 group B member 1 (Homo sapiens) (UniProt P51843), inhibition: -0.09% (inactive)

Result for Cc1ccc(S(=O)(=O)N2C[C@H]3C(=O)C[C@@H](c4cccc5ccccc45)N(S(=O)(=O)c4ccc(C)cc4)[C@H]3C[C@H]2c2ccc(Cl)cc2)cc1 , tested on Nuclear receptor subfamily 0 group B member 1 (Homo sapiens) (UniProt P51843), inhibition: -0.08% (inactive)

Result for CC1=C(C(=O)N2CCOCC2)CC(CC(=O)NCc2ccco2)C(=O)N1Cc1ccc(F)cc1 (centres undefined) , tested on Nuclear receptor subfamily 0 group B member 1 (Homo sapiens) (UniProt P51843), inhibition: 1.82% (inactive)

Result for CSc1ncnc2c1ncn2CCCNCc1ccco1 , tested on Nuclear receptor subfamily 0 group B member 1 (Homo sapiens) (UniProt P51843), inhibition: 0.14% (inactive)

Result for COc1ccccc1N1CCN(C(=O)C(=O)N/N=C/c2ccccc2F)CC1 , tested on Nuclear receptor subfamily 0 group B member 1 (Homo sapiens) (UniProt P51843), inhibition: -0.62% (inactive)

Result for CCN1C(=O)[C@H]2[C@@H](c3ccccc3)N[C@]3(CCCN(Cc4ccc(C)cc4)C3=O)[C@H]2C1=O , tested on Nuclear receptor subfamily 0 group B member 1 (Homo sapiens) (UniProt P51843), inhibition: 0.28% (inactive)

Result for CC1(c2cccc(N)c2)OCCO1 , tested on Nuclear receptor subfamily 0 group B member 1 (Homo sapiens) (UniProt P51843), inhibition: 0.74% (inactive)

Result for O=C(CCC(=O)c1cccs1)Nc1nc2ccccc2s1 , tested on Nuclear receptor subfamily 0 group B member 1 (Homo sapiens) (UniProt P51843), inhibition: 0.63% (inactive)

Result for Cc1cc(NC(=O)c2cc3ccccc3o2)no1 , tested on Nuclear receptor subfamily 0 group B member 1 (Homo sapiens) (UniProt P51843), inhibition: 0.08% (inactive)

Result for COc1ccc(NC(=S)NCC2CCN(c3ccc(OC)cc3)C2)cc1 (centres undefined) , tested on Nuclear receptor subfamily 0 group B member 1 (Homo sapiens) (UniProt P51843), inhibition: 0.86% (inactive)

Result for c1ccc(-c2cc(-c3ccccc3)[nH]n2)cc1 , tested on Nuclear receptor subfamily 0 group B member 1 (Homo sapiens) (UniProt P51843), inhibition: 5.19% (active)

Result for O=C(Cc1ccc([N+](=O)[O-])cc1)NCCS(=O)(=O)N1CCN(c2ccccc2)CC1 , tested on Nuclear receptor subfamily 0 group B member 1 (Homo sapiens) (UniProt P51843), inhibition: -0.22% (inactive)

Result for O=C(N=C1SC2CS(=O)(=O)CC2N1Cc1ccccc1)c1ccccc1 (centres undefined) , tested on Nuclear receptor subfamily 0 group B member 1 (Homo sapiens) (UniProt P51843), inhibition: 4.11% (inactive)

Result for Cn1nc(-c2ccccc2)c2cc([N+](=O)[O-])ccc21 , tested on Nuclear receptor subfamily 0 group B member 1 (Homo sapiens) (UniProt P51843), inhibition: 0.55% (inactive)

Result for Cc1ccc(Oc2nc3ccccc3n3c(C)nnc23)cc1 , tested on Nuclear receptor subfamily 0 group B member 1 (Homo sapiens) (UniProt P51843), inhibition: -0.82% (inactive)

Result for Cn1c(COc2ccc(Cl)cc2)nc2ccccc2c1=O , tested on Nuclear receptor subfamily 0 group B member 1 (Homo sapiens) (UniProt P51843), inhibition: 0.73% (inactive)

Result for COc1ccc(-c2cnc3c(c2)C(=O)N([C@H](C)CO)C[C@@H](C)[C@H](CN(C)Cc2ccccc2)O3)cc1 , tested on Nuclear receptor subfamily 0 group B member 1 (Homo sapiens) (UniProt P51843), inhibition: 1.69% (inactive)

Result for CCOC(=O)c1c(C)[nH]c(C)c1C(=O)COC(=O)/C=C/c1cccc([N+](=O)[O-])c1 , tested on Nuclear receptor subfamily 0 group B member 1 (Homo sapiens) (UniProt P51843), inhibition: 0.45% (inactive)

----------
Biological target: Nuclear receptor subfamily 0 group B member 1 (Homo sapiens) (UniProt P51843)
Test: DAX1 (NR0B1) inhibitors, primary screen, cell-based, HEK293, Gal4-DAX1, luciferase luminescence (AID 504766);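 further: 0% = DAX1-transfected cells with DMSO and 100% = empty-vector control cells with DMSO; inhibition shows as a rise in luminescence from relieved DAX1 repression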
Details: HEK293 Gal4-DAX1 luciferase reporter, at 6.75 µM
About 3,400 (1%) of roughly 340,000 compounds were called active.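 The calls were made as follows: active = inhibition above the mean over all tested compounds plus 3 SD (cut at about 4.2% in these data); inactive = the rest.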 Many of the other results were omitted from the sample, so actives are more common in it than they were.
Result category, one only: class 1 (active), class 0 (inactive)

What is the recorded call for this molecule in the test? O=C(CN1CCCSc2ccccc21)N1CCN(S(=O)(=O)c2cccc(F)c2)CC1
class 0

What is the recorded call for this molecule in the test? Cn1c2c(c(=O)n(C)c1=O)C(c1cccc(F)c1)C(C#N)=C(N)O2 (stereo not given)
class 1

What is the recorded call for this molecule in the test? CCN(CC)C(=O)C1=C(C)N(Cc2ccc(OC)cc2)C(=O)C(CC(=O)NCCCCc2ccccc2)C1 (stereo not given)
class 0

What is the recorded call for this molecule in the test? N#CC1=C(N)Oc2cc(N)ccc2C1c1ccccc1 (stereo not given)
class 0

What is the recorded call for this molecule in the test? COc1ccc2c(c1OC)C(=O)OC2Nc1nc(-c2ccccc2)cs1 (stereo not given)
class 0

What is the recorded call for this molecule in the test? CCc1ccc(N(CC(=O)Nc2sc3c(c2C(=O)OC)CCCC3)S(C)(=O)=O)cc1
class 1

What is the recorded call for this molecule in the test? O=C(Nc1sc2c(c1C(=O)O)CCC2)c1ccccc1F
class 0

What is the recorded call for this molecule in the test? NC(=O)C1(Nc2ccc([N+](=O)[O-])cc2)CCCC1
class 0

What is the recorded call for this molecule in the test? COc1cc(C(=O)OCCCN2CCOCC2)cc(OC)c1OC
class 0

What is the recorded call for this molecule in the test? CC1=C(C(=O)N2CCOCC2)CC(CC(=O)NCC2CCCCC2)C(=O)N1Cc1ccc(F)cc1 (stereo not given)
class 0

What is the recorded call for this molecule in the test? C[C@@H]1CN([C@H](C)CO)C(=O)CCCn2nncc2CO[C@@H]1CN(C)C(=O)OCc1ccccc1
class 1

What is the recorded call for this molecule in the test? COCC(=O)N(C)C[C@H]1Oc2cc(Br)ccc2S(=O)(=O)N([C@H](C)CO)C[C@H]1C
class 0

What is the recorded call for this molecule in the test? CCOC(=O)C(=Cc1ccccc1)C(=O)c1ccccc1
class 0

What is the recorded call for this molecule in the test? Cc1ccc(C=O)c([B-](F)(F)F)c1
class 0

What is the recorded call for this molecule in the test? COc1ccc(C2Nc3ccccc3C(=O)N2c2ccc(Cl)cc2)cc1Cn1cc([N+](=O)[O-])cn1 (stereo not given)
class 1

What is the recorded call for this molecule in the test? CCc1cc(C(=O)N(CC)CC(=O)Nc2c(F)cccc2F)sc1C
class 0

What is the recorded call for this molecule in the test? CC(C)N=C1CCCC1C(=S)SSC(=S)C1CCCC1=NC(C)C (stereo not given)
class 0

What is the recorded call for this molecule in the test? CCN(CC)S(=O)(=O)N1CCC(C(=O)NC(C)CCc2ccccc2)CC1 (stereo not given)
class 0

What is the recorded call for this molecule in the test? COc1cc2[nH]c(=S)n(Cc3ccc(F)cc3)c(=O)c2cc1OC
class 0

What is the recorded call for this molecule in the test? COc1ccc(NC(=O)C[C@H]2C(=O)N(CCc3ccccc3)C[C@@H]2C)cc1
class 0
